meta.source: patent US20170267768A1

Biological target: T1, human EphA2 on OVCAR-3 and U-251 cells (human, UniProt P29317 24-976)
T1 construct: whole, on cells; also called EphA2 receptors
T1 sequence (P29317 24-976): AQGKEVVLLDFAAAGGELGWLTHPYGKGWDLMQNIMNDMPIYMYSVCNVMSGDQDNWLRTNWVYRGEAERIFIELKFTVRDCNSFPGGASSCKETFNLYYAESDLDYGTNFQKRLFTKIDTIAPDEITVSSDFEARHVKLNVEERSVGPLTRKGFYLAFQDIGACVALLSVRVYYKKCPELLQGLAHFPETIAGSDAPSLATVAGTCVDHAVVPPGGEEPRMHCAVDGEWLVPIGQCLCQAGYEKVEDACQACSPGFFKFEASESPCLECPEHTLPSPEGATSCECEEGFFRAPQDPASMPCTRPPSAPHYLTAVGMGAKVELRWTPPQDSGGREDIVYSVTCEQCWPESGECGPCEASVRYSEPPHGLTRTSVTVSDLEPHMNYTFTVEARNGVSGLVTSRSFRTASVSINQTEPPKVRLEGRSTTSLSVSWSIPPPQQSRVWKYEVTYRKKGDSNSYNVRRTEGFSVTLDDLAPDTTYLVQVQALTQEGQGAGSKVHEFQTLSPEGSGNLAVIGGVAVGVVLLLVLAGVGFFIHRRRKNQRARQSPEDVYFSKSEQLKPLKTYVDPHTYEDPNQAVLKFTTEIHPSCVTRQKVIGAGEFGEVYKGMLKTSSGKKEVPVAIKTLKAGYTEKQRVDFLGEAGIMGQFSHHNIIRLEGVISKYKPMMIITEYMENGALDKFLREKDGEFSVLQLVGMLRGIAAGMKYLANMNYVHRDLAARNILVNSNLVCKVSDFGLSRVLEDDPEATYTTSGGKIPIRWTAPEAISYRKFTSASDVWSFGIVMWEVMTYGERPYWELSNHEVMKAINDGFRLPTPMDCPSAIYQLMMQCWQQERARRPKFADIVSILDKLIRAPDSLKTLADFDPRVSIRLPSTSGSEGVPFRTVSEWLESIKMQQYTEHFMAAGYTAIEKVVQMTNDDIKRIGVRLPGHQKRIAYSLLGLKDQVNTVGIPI
Assay: CLIA: scFv-decorated fluorescent NTA(Ni) liposomes on EphA2-expressing cells, FACS
RECORDED_METRIC: binding result

[
  {
    "BINDER": "scFv-7 (scFv) scFv: QVQLVQSGGGLVQPGGSLRLSCAASGFTFSSYAMHWVRQAPGKGLEWVSVISPAGPNTYYADSVKGRFTISRDNSKNTLYLQMNSLRAEDTAVYYCARASVGATGPFDIWGQGTLVTVSSASTGGGGSGGGGSGGGGSGGGGSSSELTQPPSVSVAPGQTVTITCQGDSLRSYYASWYQQKPGTAPKLLIYGENNRPSGVPDRFSGSSSGTSASLTITGAQAEDEADYYCNSRDSSGTHLTVFGGGTKLTVLG",
    "REPORTED_MEASUREMENT": "binds"
  },
  {
    "BINDER": "scFv-18 (scFv) scFv: QVQLVQSGGGLVQPGGSLRLSCAASGFTFSSYAMHWVRQAPGKGLEWVSVISPAGTNTYYADSVKGRFTISRDNSKNTLYLQMNSLRAEDTAVYYCARASVGATGPFDIWGQGTLVTVSSASTGGGGSGGGGSGGGGSGGGGSSSELTQPPSVSVAPGQTVTITCQGDSLRSYYASWYQQKPGTAPKLLIYGENNRPSGVPDRFSGSSSGTSASLTITGAQAEDEADYYCNSRDSSGTHLTVFGGGTKLTVLG",
    "REPORTED_MEASUREMENT": "binds"
  },
  {
    "BINDER": "scFv-6 (scFv) scFv: QVQLVQSGGGLVQPGGSLRLSCAASGFTFSSYAMHWVRQAPGKGLEWVSVISNNGHNKYYADSVKGRFTISRDNSKNTLYLQMNSLRAEDTAVYYCARASVGATGPFDIWGQGTLVTVSSASTGGGGSGGGGSGGGGSGGGGSSSELTQPPSVSVAPGQTVTITCQGDSLRSYYASWYQQKPGTAPKLLIYGENNRPSGVPDRFSGSSSGTSASLTITGAQAEDEADYYCNSRDSSGTHLTVFGGGTKLTVLG",
    "REPORTED_MEASUREMENT": "binds"
  }
]
